Entries and their IC50 values follow.
target: Mitogen-activated protein kinase 14 (Homo sapiens, UniProt Q16539); assay: Inhibition of p38alpha MAPK after 40 mins by scintillation counting
Sequence (Q16539 whole entry): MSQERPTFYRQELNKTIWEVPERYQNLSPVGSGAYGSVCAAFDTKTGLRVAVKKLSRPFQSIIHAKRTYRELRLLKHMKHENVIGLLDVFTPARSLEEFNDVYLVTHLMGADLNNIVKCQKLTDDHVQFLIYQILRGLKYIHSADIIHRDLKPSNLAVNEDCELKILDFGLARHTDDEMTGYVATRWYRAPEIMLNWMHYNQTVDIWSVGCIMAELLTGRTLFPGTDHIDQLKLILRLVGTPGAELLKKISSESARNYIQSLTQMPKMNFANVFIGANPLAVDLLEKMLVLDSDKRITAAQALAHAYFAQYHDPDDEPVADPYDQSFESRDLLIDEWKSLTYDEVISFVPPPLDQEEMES
Number only, in nM; omit the unit.

Example entries begin here.
>  <line-notation>
O=c1c(-c2ccc(F)cc2)c(-c2ccnc(Cl)c2)oc2ccccc12

>  <unit-name>
nM

>  <IC50>
1380

$$$$
>  <line-notation>
COCCCNc1cc(-c2oc3ccccc3c(=O)c2-c2ccc(F)cc2)ccn1

>  <unit-name>
nM

>  <IC50>
39

$$$$
>  <line-notation>
O=c1c(-c2ccc(F)cc2)c(-c2ccncc2)oc2ccccc12

>  <unit-name>
nM

>  <IC50>
813

$$$$
>  <line-notation>
O=c1c(-c2ccc(F)cc2)c(-c2ccnc(NC3CCCCC3)c2)oc2ccccc12

>  <unit-name>
nM

>  <IC50>
34

$$$$
>  <line-notation>
CCCCNc1cc(-c2oc3ccccc3c(=O)c2-c2ccc(F)cc2)ccn1

>  <unit-name>
nM

>  <IC50>
21

$$$$

Give its IC50 value. Item: `O=c1c(-c2ccc(F)cc2)c(-c2ccnc(NCc3ccccc3)c2)oc2ccccc12`
35

Give its IC50 value. Item: `CC(C)Nc1cc(-c2oc3ccccc3c(=O)c2-c2ccc(F)cc2)ccn1`
17

Give its IC50 value. Item: `CN(C)CCCNc1cc(-c2oc3ccccc3c(=O)c2-c2ccc(F)cc2)ccn1`
761

Give its IC50 value. Item: `O=c1c(-c2ccc(F)cc2)c(-c2ccnc(NC3CCOCC3)c2)oc2ccccc12`
45
